The origin of these recorded values is paper PMC12820563.

Tested On: MBP-FoxP3dN (Mus musculus, UniProt Q99JB6 188-423)
Sequence: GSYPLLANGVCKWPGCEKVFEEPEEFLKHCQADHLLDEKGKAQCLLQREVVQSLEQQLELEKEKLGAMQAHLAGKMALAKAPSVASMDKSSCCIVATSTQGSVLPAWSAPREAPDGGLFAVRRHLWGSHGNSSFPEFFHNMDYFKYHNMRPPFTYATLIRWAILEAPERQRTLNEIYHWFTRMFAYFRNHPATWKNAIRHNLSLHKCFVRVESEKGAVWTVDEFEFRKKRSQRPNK
Experimental Details: PD-seq (MBP pull-down with sequencing); 20 mM Tris-HCl pH 7.5, 100 mM NaCl, 1.5 mM MgCl2, 0.4 uM protein, 0.1 uM dsDNA library, 30 min, room temperature, amylose pull-down; high values mean tight binding
Measurement Setup: protein: recombinant; tags: His6-MBP; chain copies: 2; dsDNA, one strand shown
Whole data set: some 16,000 sequences, median “rpm ratio (pull-down/input)” near 0.5, cut for the highest 2% near 5.5. The sample as a whole holds a higher share of the highest values than the screen did.
Assay Readout: binding signal

- Polymer Sequence: "GATGATTGTTCTCCCAGCTGATGAATTCCCTGCATCGAGTAAACAAATTTTCCTAATCTTTCTGTTCAAGCGCCATCTAC"
  binding signal: "0.746 RPM ratio (pull-down/input)"

Fill in the blank: the reported binding signal of GATGATTGTTCTCCCAGCTGATGAATTTTGAGCATCGAGTAAACAAATTTTCCTAATCTTTCTGTTCAAGCGCCATCTAC is ____.
0.906 RPM ratio (pull-down/input)

Repeat with GATGATTGTTCTCCCAGCTGATGAATTTGAGCATTCGAGTAAACAAATTTTCCTAATCTTTCTGTTCAAGCGCCATCTAC
5.36 RPM ratio (pull-down/input)

Repeat with GATGATTGTTCTCCCAGCTGATGAATTTCTGCTGTCGAGTAAACAAATTTTCCTAATCTTTCTGTTCAAGCGCCATCTAC
0.378 RPM ratio (pull-down/input)

Repeat with GATGATTGTTCTCCCAGCTGATGAATTGATTCGCTCGAGTAAACAAATTTTCCTAATCTTTCTGTTCAAGCGCCATCTAC
0.331 RPM ratio (pull-down/input)

----------
Tested On: MBP-FoxP3dN (Mus musculus, UniProt Q99JB6 188-423)
Sequence: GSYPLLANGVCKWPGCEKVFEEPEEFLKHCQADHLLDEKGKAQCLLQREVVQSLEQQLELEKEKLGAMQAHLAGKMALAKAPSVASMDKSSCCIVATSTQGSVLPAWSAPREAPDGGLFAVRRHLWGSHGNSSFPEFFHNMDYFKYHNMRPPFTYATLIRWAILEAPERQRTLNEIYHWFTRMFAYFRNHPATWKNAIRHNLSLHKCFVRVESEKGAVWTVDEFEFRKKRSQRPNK
Experimental Details: PD-seq (MBP pull-down with sequencing); 20 mM Tris-HCl pH 7.5, 100 mM NaCl, 1.5 mM MgCl2, 0.4 uM protein, 0.1 uM dsDNA library, 30 min, room temperature, amylose pull-down; high values mean tight binding
Measurement Setup: protein: recombinant; tags: His6-MBP; chain copies: 2; dsDNA, one strand shown
The full ranking holds about 16,000 sequences; the median of “rpm ratio (pull-down/input)” is about 0.5, and the highest 2% start at about 5.5. The sample as a whole holds a higher share of the highest values than the screen did.
Below, each entry is listed alongside its reported binding signal.

Some sequences with known binding signal results, for comparison:
- Polymer Sequence: "GATGATTGTTCTCCCAGCTGATGAATTTCATACATCGAGTAAACAAATTTTCCTAATCTTTCTGTTCAAGCGCCATCTAC"
  binding signal: "0.449 RPM ratio (pull-down/input)"
- Polymer Sequence: "GATGATTGTTCTCCCAGCTGATGAATTAGAGAGTTCGAGTAAACAAATTTTCCTAATCTTTCTGTTCAAGCGCCATCTAC"
  binding signal: "0.399 RPM ratio (pull-down/input)"
- Polymer Sequence: "GATGATTGTTCTCCCAGCTGATGAATTTTGCGCCTCGAGTAAACAAATTTTCCTAATCTTTCTGTTCAAGCGCCATCTAC"
  binding signal: "2.67 RPM ratio (pull-down/input)"
- Polymer Sequence: "GATGATTGTTCTCCCAGCTGATGAATTGCCTCTCTCGAGTAAACAAATTTTCCTAATCTTTCTGTTCAAGCGCCATCTAC"
  binding signal: "1.04 RPM ratio (pull-down/input)"
- Polymer Sequence: "GATGATTGTTCTCCCAGCTGATGAATTTTCGGCATCGAGTAAACAAATTTTCCTAATCTTTCTGTTCAAGCGCCATCTAC"
  binding signal: "0.816 RPM ratio (pull-down/input)"
- Polymer Sequence: "GATGATTGTTCTCCCAGCTGATGAATTGCCAAATTCGAGTAAACAAATTTTCCTAATCTTTCTGTTCAAGCGCCATCTAC"
  binding signal: "0.453 RPM ratio (pull-down/input)"
- Polymer Sequence: "GATGATTGTTCTCCCAGCTGATGAATTCGGCCATTCGAGTAAACAAATTTTCCTAATCTTTCTGTTCAAGCGCCATCTAC"
  binding signal: "3.92 RPM ratio (pull-down/input)"
- Polymer Sequence: "GATGATTGTTCTCCCAGCTGATGAATTTGCCGCCTCGAGTAAACAAATTTTCCTAATCTTTCTGTTCAAGCGCCATCTAC"
  binding signal: "0.88 RPM ratio (pull-down/input)"

Fill in the blank: the reported binding signal of GATGATTGTTCTCCCAGCTGATGAATTCCGGCATTCGAGTAAACAAATTTTCCTAATCTTTCTGTTCAAGCGCCATCTAC is ____.
4.43 RPM ratio (pull-down/input)

Repeat with GATGATTGTTCTCCCAGCTGATGAATTTGCGGCATCGAGTAAACAAATTTTCCTAATCTTTCTGTTCAAGCGCCATCTAC
1.14 RPM ratio (pull-down/input)

Repeat with GATGATTGTTCTCCCAGCTGATGAATTCTCGGCATCGAGTAAACAAATTTTCCTAATCTTTCTGTTCAAGCGCCATCTAC
0.601 RPM ratio (pull-down/input)

Repeat with GATGATTGTTCTCCCAGCTGATGAATTCGGCAGCTCGAGTAAACAAATTTTCCTAATCTTTCTGTTCAAGCGCCATCTAC
1.36 RPM ratio (pull-down/input)

Repeat with GATGATTGTTCTCCCAGCTGATGAATTGCGGCATTCGAGTAAACAAATTTTCCTAATCTTTCTGTTCAAGCGCCATCTAC
7.34 RPM ratio (pull-down/input)

Repeat with GATGATTGTTCTCCCAGCTGATGAATTCGGGCATTCGAGTAAACAAATTTTCCTAATCTTTCTGTTCAAGCGCCATCTAC
4.9 RPM ratio (pull-down/input)

Repeat with GATGATTGTTCTCCCAGCTGATGAATTAGCTGGCTCGAGTAAACAAATTTTCCTAATCTTTCTGTTCAAGCGCCATCTAC
0.476 RPM ratio (pull-down/input)
